Catalogue of MIC readings, one per entry.
Test system: E. coli BW25113 ΔtolC derivative JW5503-1
Assay: MIC, microbroth dilution in Mueller-Hinton broth
Assay type: cell-based, Escherichia coli
Details: Escherichia coli, BW25113, read-out: MIC ECΔtolC
Please respond with the number in µg/mL and leave the unit unwritten.

INSERT INTO measurements (compound, property_measured, test_result) VALUES
  ('CC1(C)SC2C(NC(=O)C(NC(=O)C3=C(O)C(Cc4ccc(F)cc4)NC3=O)c3ccccc3)C(=O)N2C1C(=O)O (stereo not drawn)', 'MIC', 1.56),
  ('CC1(C)SC2C(NC(=O)C(NC(=O)C3=C(O)C(Cc4ccc([N+](=O)[O-])cc4)NC3=O)c3ccccc3)C(=O)N2C1C(=O)O (stereo not drawn)', 'MIC', 3.13);

Now let's try a different one.
Record CC1(C)SC2C(NC(=O)C(NC(=O)C3=C(O)C(Cc4ccc(O)cc4)NC3=O)c3ccccc3)C(=O)N2C1C(=O)O (stereo not drawn) / E. coli BW25113 ΔtolC derivative JW5503-1, MIC recorded as 6.25
